All figures here come from paper PMC7527217.

# maps each entry to its Kd
- tested-system: recombinant human Bcl-xL (residues 1 to 209, Δloop45 to 84) (human, UniProt Q07817-1 1-209, Δloop45 to 84)
- assay-method-text: ITC
measured-attribute: Kd

> print(dat)
                                     binder  assay.value
1  PSSPTSEIGRHLAQLGDSYSVRFQNE [trBak BH3 peptide]     0.197 µM
2  IEPTSPTIQVARTIRQIGDELDSDPHLN [trBax BH3 peptide]     0.877 µM
